Target: T1, human CD20 (human, UniProt P11836 1-297)
T1 sequence (looked up): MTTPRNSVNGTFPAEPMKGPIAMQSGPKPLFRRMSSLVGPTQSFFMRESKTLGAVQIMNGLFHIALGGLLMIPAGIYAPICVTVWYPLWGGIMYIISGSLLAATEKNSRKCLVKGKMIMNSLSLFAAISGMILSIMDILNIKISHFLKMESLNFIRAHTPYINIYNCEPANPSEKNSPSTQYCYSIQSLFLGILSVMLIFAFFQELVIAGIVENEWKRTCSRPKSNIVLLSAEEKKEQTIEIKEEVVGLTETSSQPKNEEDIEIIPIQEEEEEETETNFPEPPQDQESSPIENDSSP
Assay: cell-based or functional assay
MEASUREMENT_NAME: EC50 µg/ml Ramos Apoptosis Alamar Blue (µg/mL)
# value in µg/mL; strip the unit string

So what's the measured EC50 µg/ml Ramos Apoptosis Alamar Blue for this one? mAb 1.12.3 (antibody, human IgG1, V domains shown) VH: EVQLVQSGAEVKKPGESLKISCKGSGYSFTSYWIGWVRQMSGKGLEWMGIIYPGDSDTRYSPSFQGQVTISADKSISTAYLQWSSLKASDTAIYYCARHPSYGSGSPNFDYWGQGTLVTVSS VL: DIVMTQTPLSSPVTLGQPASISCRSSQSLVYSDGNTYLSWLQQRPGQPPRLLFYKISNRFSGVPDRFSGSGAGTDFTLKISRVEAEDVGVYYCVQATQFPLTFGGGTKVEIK
0.026

# input for lookup
Need EC50 µg/ml Ramos Apoptosis Alamar Blue of mAb 2.2.2 (antibody, human IgG1, V domains shown) VH: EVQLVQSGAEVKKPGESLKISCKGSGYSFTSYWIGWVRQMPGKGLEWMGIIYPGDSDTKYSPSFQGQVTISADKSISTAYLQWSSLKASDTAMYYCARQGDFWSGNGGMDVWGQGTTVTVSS VL: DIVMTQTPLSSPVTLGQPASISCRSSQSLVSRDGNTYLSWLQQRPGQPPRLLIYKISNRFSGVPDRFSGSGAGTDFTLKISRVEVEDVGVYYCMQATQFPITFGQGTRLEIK , thanks.
0.0207
